Molecular target: Beta-adrenergic receptor kinase 1 (Homo sapiens)
Assay: ligand-induced GRK2 thermal stabilization – biophysical, Thermofluor, set 1, orthogonal assay for GRK2 aptamer-displacement inhibitor project (AID 588428)
Conditions: purified GRK2 thermal shift, ANS fluorescence; at 200 µM
The source made the active and inactive calls.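 The calls were made as follows: active = compounds whose thermal stabilization response is above zero, meaning they raise the protein's melting point; inactive = the rest.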
Outcome codes: active, inactive

compound: Cc1cc2ccccc2n1CCNC(=O)c1cccs1
tested target: Beta-adrenergic receptor kinase 1 (Homo sapiens)
cat: inactive
--
compound: O=C(CCS(=O)(=O)c1ccc(Br)cc1)NCCc1ccc(Cl)cc1
tested target: Beta-adrenergic receptor kinase 1 (Homo sapiens)
cat: inactive
--
compound: Cc1cc(=O)[nH]c(SCC(=O)NCc2ccco2)n1
tested target: Beta-adrenergic receptor kinase 1 (Homo sapiens)
cat: inactive
--
compound: Cc1ccccc1NC(=O)CCS(=O)(=O)c1ccc(Br)cc1
tested target: Beta-adrenergic receptor kinase 1 (Homo sapiens)
cat: active
--
compound: CCc1ccccc1NC(=O)CCS(=O)(=O)c1ccc(Br)cc1
tested target: Beta-adrenergic receptor kinase 1 (Homo sapiens)
cat: inactive
--
compound: Cc1cccc(N2CCN(C(=O)CCS(=O)(=O)c3ccc(Br)cc3)CC2C)c1 (stereo not given)
tested target: Beta-adrenergic receptor kinase 1 (Homo sapiens)
cat: inactive
--
compound: O=C(O)C1CC(=O)N(c2ccc3c(c2)OCCO3)C1 (stereo not given)
tested target: Beta-adrenergic receptor kinase 1 (Homo sapiens)
cat: inactive
--
compound: CCOc1ccc(CCNC(=O)CCS(=O)(=O)c2ccc(Br)cc2)cc1OCC
tested target: Beta-adrenergic receptor kinase 1 (Homo sapiens)
cat: inactive
--
compound: COc1ccc(CNC(=O)CCS(=O)(=O)c2ccc(Br)cc2)cc1
tested target: Beta-adrenergic receptor kinase 1 (Homo sapiens)
cat: inactive
--
compound: O=C(CCS(=O)(=O)c1ccc(Br)cc1)Nc1cc(F)ccc1F
tested target: Beta-adrenergic receptor kinase 1 (Homo sapiens)
cat: inactive

Origin of the recorded values: PubChem BioAssay AID588428
